Entries and their Retention_time
- assay procedure: Retention time of the compound by HPLC analysis
- Type: physicochemical
measured parameter: Retention_time (min)

{"structure": "COc1ccc(S(=O)(=O)n2cc(-c3ccnc(N)n3)c3cc(Br)ccc32)cc1", "measured parameter": "Retention_time", "data value": 8.08}
{"structure": "Nc1nccc(-c2cn(S(=O)(=O)c3ccc([N+](=O)[O-])cc3)c3ccc(Br)cc23)n1", "measured parameter": "Retention_time", "data value": 7.78}
{"structure": "Nc1nccc(-c2cn(S(=O)(=O)c3ccc4c(c3)OCCO4)c3ccc(Br)cc23)n1", "measured parameter": "Retention_time", "data value": 8}
{"structure": "Nc1nccc(-c2cn(S(=O)(=O)c3cc(C(F)(F)F)cc(C(F)(F)F)c3)c3ccccc23)n1", "measured parameter": "Retention_time", "data value": 7.87}

Hello, the source for this data is ChEMBL document CHEMBL3425465, in case you need it.
